Assay remarks: Steady state oral/IV rat PK and compound penetration into spine and brain (Example 16)
Assay type: in vivo, Sprague-Dawley rats
Test context: male, Sprague-Dawley, rat, plasma, iv, 1 mg/kg, DAY 1, 1 mg/kg IV, plasma
Readout kind: half-life (min)
One number for each entry, in min.

Exercise: Would you kindly share the measured half-life for [2H]C([2H])([2H])c1ccc(C#Cc2ccc(S(=O)(=O)N[C@H](Cc3c[nH]c4ccccc34)C(=O)O)s2)cc1 [Compound 118] ?
Solution: 58.2

###

Assay remarks: Steady state oral/IV rat PK and compound penetration into spine and brain (Example 16)
Assay type: in vivo, Sprague-Dawley rats
Test context: male, Sprague-Dawley, rat, plasma, po, 40 mg/kg, DAY 1, 40 mg/kg PO, plasma
Readout kind: half-life (min)
Give bare numbers, in min.

Exercise: Would you kindly share the measured half-life for [2H]C([2H])([2H])c1ccc(C#Cc2ccc(S(=O)(=O)N[C@H](Cc3c[nH]c4ccccc34)C(=O)O)s2)cc1 ?
Solution: 60.6

###

Assay remarks: Steady state oral/IV rat PK and compound penetration into spine and brain (Example 16)
Type: in vivo, Sprague-Dawley rats
Test context: male, Sprague-Dawley, rat, plasma, iv, 1 mg/kg, DAY 2, 1 mg/kg IV once per day, plasma
Readout kind: AUC(0-t)
Hi, when you answer, please include the unit after the number. Thanks!

Exercise: Would you kindly share the measured AUC(0-t) for [2H]C([2H])([2H])c1ccc(C#Cc2ccc(S(=O)(=O)N[C@H](Cc3c[nH]c4ccccc34)C(=O)O)s2)cc1 ?
Solution: 1170 ng·h/mL

###

Assay remarks: Steady state oral/IV rat PK and compound penetration into spine and brain (Example 16)
Assay type: in vivo, Sprague-Dawley rats
Test context: male, Sprague-Dawley, rat, plasma, po, 10 mg/kg, DAY 3, 10 mg/kg PO once per day, plasma
Readout kind: Cmax (ng/mL)
Answers are plain numbers, in ng/mL.

Exercise: Would you kindly share the measured Cmax for [2H]C([2H])([2H])c1ccc(C#Cc2ccc(S(=O)(=O)N[C@H](Cc3c[nH]c4ccccc34)C(=O)O)s2)cc1 [Compound 118] ?
Solution: 1450

###

Field: AUC(0-t). Provide a value for each of the molecules that follow.
Assay remarks: In-vivo oral rat pharmacokinetics (Example 15)
Test context: male Sprague-Dawley rats, dose level 10 mg/kg, 0.5% MC, plasma, mean
Numbers only, in ng·h/mL.

Smiles text: [2H]C([2H])([2H])c1ccc(C#Cc2ccc(S(=O)(=O)N[C@H](Cc3c[nH]c4ccccc34)C(=O)O)s2)cc1
AUC(0-t) / ng·h/mL: 7680

Would you kindly look at the next entry?
Exercise: Would you kindly share the measured AUC(0-t) for Cc1ccc(C#Cc2ccc(S(=O)(=O)N[C@H](Cc3c[nH]c4ccccc34)C(=O)O)s2)cc1 ?
Solution: 5120

###

Assay remarks: Steady state oral/IV rat PK and compound penetration into spine and brain (Example 16)
Type: in vivo, Sprague-Dawley rats
Test context: male, Sprague-Dawley, rat, plasma, iv, 1 mg/kg, DAY 3, 1 mg/kg IV once per day, plasma
Readout kind: AUC(0-t)
Hi, when you answer, please include the unit after the number. Thanks!

Exercise: Would you kindly share the measured AUC(0-t) for [2H]C([2H])([2H])c1ccc(C#Cc2ccc(S(=O)(=O)N[C@H](Cc3c[nH]c4ccccc34)C(=O)O)s2)cc1 ?
Solution: 1650 ng·h/mL

###

Assay remarks: Steady state oral/IV rat PK and compound penetration into spine and brain (Example 16)
Format: in vivo, Sprague-Dawley rats
Test context: male, Sprague-Dawley, rat, plasma, po, 10 mg/kg, DAY 3, 10 mg/kg PO once per day, plasma
Readout kind: AUC(0-t) (ng·h/mL)
One number for each entry, in ng·h/mL.

Exercise: Would you kindly share the measured AUC(0-t) for [2H]C([2H])([2H])c1ccc(C#Cc2ccc(S(=O)(=O)N[C@H](Cc3c[nH]c4ccccc34)C(=O)O)s2)cc1 ?
Solution: 4010

###

Assay remarks: Steady state oral/IV rat PK and compound penetration into spine and brain (Example 16)
Assay type: in vivo, Sprague-Dawley rats
Test context: male, Sprague-Dawley, rat, plasma, po, 20 mg/kg, DAY 3, 20 mg/kg PO once per day, plasma
Readout kind: AUC(0-inf) (ng·h/mL)
One number for each entry, in ng·h/mL.

Exercise: Would you kindly share the measured AUC(0-inf) for [2H]C([2H])([2H])c1ccc(C#Cc2ccc(S(=O)(=O)N[C@H](Cc3c[nH]c4ccccc34)C(=O)O)s2)cc1 ?
Solution: 10100

###

Assay remarks: Steady state oral/IV rat PK and compound penetration into spine and brain (Example 16)
Type: in vivo, Sprague-Dawley rats
Test context: male, Sprague-Dawley, rat, plasma, po, 40 mg/kg, DAY 1, 40 mg/kg PO, plasma
Readout kind: AUC(0-t) (ng·h/mL)
Give bare numbers, in ng·h/mL.

Exercise: Would you kindly share the measured AUC(0-t) for [2H]C([2H])([2H])c1ccc(C#Cc2ccc(S(=O)(=O)N[C@H](Cc3c[nH]c4ccccc34)C(=O)O)s2)cc1 ?
Solution: 15600

###

Assay remarks: Steady state oral/IV rat PK and compound penetration into spine and brain (Example 16)
Assay type: in vivo, Sprague-Dawley rats
Test context: male, Sprague-Dawley, rat, plasma, iv, 1 mg/kg, DAY 3, 1 mg/kg IV once per day, plasma
Readout kind: half-life (min)
Answers are plain numbers, in min.

Exercise: Would you kindly share the measured half-life for [2H]C([2H])([2H])c1ccc(C#Cc2ccc(S(=O)(=O)N[C@H](Cc3c[nH]c4ccccc34)C(=O)O)s2)cc1 ?
Solution: 53.4

###

Assay remarks: Steady state oral/IV rat PK and compound penetration into spine and brain (Example 16)
Assay type: in vivo, Sprague-Dawley rats
Test context: male, Sprague-Dawley, rat, plasma, po, 10 mg/kg, DAY 2, 10 mg/kg PO once per day, plasma
Readout kind: half-life (h)
Answers are plain numbers, in h.

Exercise: Would you kindly share the measured half-life for [2H]C([2H])([2H])c1ccc(C#Cc2ccc(S(=O)(=O)N[C@H](Cc3c[nH]c4ccccc34)C(=O)O)s2)cc1 ?
Solution: 1.24

###

Assay remarks: Steady state oral/IV rat PK and compound penetration into spine and brain (Example 16)
Type: in vivo, Sprague-Dawley rats
Test context: male, Sprague-Dawley, rat, plasma, po, 20 mg/kg, DAY 2, 20 mg/kg PO once per day, plasma
Readout kind: AUC(0-t) (ng·h/mL)
One number for each entry, in ng·h/mL.

Exercise: Would you kindly share the measured AUC(0-t) for [2H]C([2H])([2H])c1ccc(C#Cc2ccc(S(=O)(=O)N[C@H](Cc3c[nH]c4ccccc34)C(=O)O)s2)cc1 ?
Solution: 4650

###

Assay remarks: In-vivo oral PK of Compound 118 in SOD-1 mice (Example 19)
Design: species or system SOD-1-G93A (SOD-1) mice
Test context: male, SOD-1-G93A, mouse, plasma, po, 200 mg/kg, Male SOD-1 mice, SID, PO 200 mg/Kg for 3 days
Readout kind: Cmax (ng/mL)
Answers are plain numbers, in ng/mL.

Exercise: Would you kindly share the measured Cmax for [2H]C([2H])([2H])c1ccc(C#Cc2ccc(S(=O)(=O)N[C@H](Cc3c[nH]c4ccccc34)C(=O)O)s2)cc1 ?
Solution: 44500

###

Assay remarks: Steady state oral/IV rat PK and compound penetration into spine and brain (Example 16)
Format: in vivo, Sprague-Dawley rats
Test context: male, Sprague-Dawley, rat, plasma, po, 40 mg/kg, DAY 2, 40 mg/kg PO once per day, plasma
Readout kind: AUC(0-inf) (ng·h/mL)
One number for each entry, in ng·h/mL.

Exercise: Would you kindly share the measured AUC(0-inf) for [2H]C([2H])([2H])c1ccc(C#Cc2ccc(S(=O)(=O)N[C@H](Cc3c[nH]c4ccccc34)C(=O)O)s2)cc1 ?
Solution: 12200

###

Assay remarks: In-vivo oral rat pharmacokinetics (Example 15)
Test context: male Sprague-Dawley rats, dose level 10 mg/kg, 0.5% MC, plasma, mean
Readout kind: half-life (h)
Numbers only, in h.

Compound: [2H]C([2H])([2H])c1ccc(C#Cc2ccc(S(=O)(=O)N[C@H](Cc3c[nH]c4ccccc34)C(=O)O)s2)cc1 [Compound 118]
half-life / h: 1.47

Would you kindly look at the next entry?
Exercise: Would you kindly share the measured half-life for Cc1ccc(C#Cc2ccc(S(=O)(=O)N[C@H](Cc3c[nH]c4ccccc34)C(=O)O)s2)cc1 [Compound 5] ?
Solution: 1.28

###

Assay remarks: In-vivo oral rat pharmacokinetics (Example 15)
Test context: male Sprague-Dawley rats, dose level 10 mg/kg, 0.5% MC, plasma, mean
Field: AUC(0-inf). Provide a value for each of the compounds that follow.
Give bare numbers, in ng·h/mL.

Smiles text: Cc1ccc(C#Cc2ccc(S(=O)(=O)N[C@H](Cc3c[nH]c4ccccc34)C(=O)O)s2)cc1
Readout kind: AUC(0-inf)
Reported: 5150

Would you kindly look at the next entry?
Exercise: Would you kindly share the measured AUC(0-inf) for [2H]C([2H])([2H])c1ccc(C#Cc2ccc(S(=O)(=O)N[C@H](Cc3c[nH]c4ccccc34)C(=O)O)s2)cc1 ?
Solution: 7730

Attribution: patent US12589090B2
